procedure text: Tissue distribution after single IP or PO dose
Type: in vivo, BALB/c mice
condition context: female, BALB/c, mouse, liver, po, 10 mg/kg
observed property: MRT inf (h)

{"structure": "CCn1c2ccccc2c2cc(-n3nncc3-c3ccccc3)ccc21", "quantitative readout": 5}

---

procedure text: Tissue distribution after single IP or PO dose
Format: in vivo, BALB/c mice
condition context: female, BALB/c, mouse, lungs, po, 10 mg/kg

{"structure": "CCn1c2ccccc2c2cc(-n3nncc3-c3ccccc3)ccc21", "Vd/F": "0.01 L"}

---

procedure text: Plasma pharmacokinetics after single IP or PO dose
Assay type: in vivo, Balb/c mice
condition context: female, BALB/c, mouse, plasma, ip, 10 mg/kg
observed property: AUC(0-t) (ng·h/mL)

{"structure": "CCn1c2ccccc2c2cc(-n3nncc3-c3ccccc3)ccc21", "unit spec": "ng·h/mL", "quantitative readout": 1640}

---

procedure text: Tissue distribution after single IP or PO dose
Type: in vivo, BALB/c mice
condition context: female, BALB/c, mouse, liver, po, 10 mg/kg

{"structure": "CCn1c2ccccc2c2cc(-n3nncc3-c3ccccc3)ccc21", "tissue uptake, %ID/g": 1.6}

---

procedure text: Tissue distribution after single IP or PO dose
Type: in vivo, BALB/c mice
condition context: female, BALB/c, mouse, kidneys, ip, 10 mg/kg

{"compound": "CCn1c2ccccc2c2cc(-n3nncc3-c3ccccc3)ccc21 [MBQ-167]", "concentration at 30 min [ng/g]": 10500}

---

procedure text: Tissue distribution after single IP or PO dose
Format: in vivo, BALB/c mice
condition context: female, BALB/c, mouse, kidneys, po, 10 mg/kg

{"structure": "CCn1c2ccccc2c2cc(-n3nncc3-c3ccccc3)ccc21", "tissue uptake, %ID/g": 1.6}

---

procedure text: Tissue distribution after single IP or PO dose
Type: in vivo, BALB/c mice
condition context: female, BALB/c, mouse, lungs, po, 10 mg/kg, Tmax; PO 10 mg/kg; mean ± SEM
observed property: Tmax (min)

{"structure": "CCn1c2ccccc2c2cc(-n3nncc3-c3ccccc3)ccc21", "quantitative readout": 30}

---

procedure text: Tissue distribution after single IP or PO dose
Assay type: in vivo, BALB/c mice
condition context: female, BALB/c, mouse, lungs, po, 10 mg/kg

{"structure": "CCn1c2ccccc2c2cc(-n3nncc3-c3ccccc3)ccc21", "half-life / min": 53.4}

---

procedure text: Tissue distribution after single IP or PO dose
Type: in vivo, BALB/c mice
condition context: female, BALB/c, mouse, heart, po, 10 mg/kg, Tmax; PO 10 mg/kg; mean ± SEM

{"structure": "CCn1c2ccccc2c2cc(-n3nncc3-c3ccccc3)ccc21", "Tmax / min": 30}

---

procedure text: Plasma pharmacokinetics after single IP or PO dose
Format: in vivo, Balb/c mice
condition context: female, BALB/c, mouse, plasma, po, 10 mg/kg

{"structure": "CCn1c2ccccc2c2cc(-n3nncc3-c3ccccc3)ccc21", "unit spec": "h", "MRT inf": 1.9}

---

procedure text: Tissue distribution after single IP or PO dose
Format: in vivo, BALB/c mice
condition context: female, BALB/c, mouse, lungs, ip, 10 mg/kg
observed property: half-life (h)

{"structure": "CCn1c2ccccc2c2cc(-n3nncc3-c3ccccc3)ccc21", "quantitative readout": 1.84}
